- Method Notes: Pharmacokinetic assay in mice
- Assay type: in vivo, Balb/c mice
- Condition Notes: plasma, 2 mg/kg; mouse, IV 2mpk; read-out: MRT(0-∞)
Experimental Readout: MRT inf (h)

• Cn1ncc2c(N)nc3cc(F)c(C(=O)N4CCOC[C@@H]4c4ccc5c(c4)OC(F)(F)O5)cc3c21 [Example I-7] = 2.7

* * *

- Method Notes: Pharmacokinetic assay in mice
- Assay type: in vivo, Balb/c mice
- Condition Notes: male, Balb/c, plasma, 2 mg/kg; mouse, IV 2mpk
Reported AUC(0-inf) is given for each of the following molecules.
Experimental Readout: AUC(0-inf) (µM·h)

* CN(Cc1ccc2c(c1)OC(F)(F)O2)C(=O)c1ccc2nc(N)c3cnn(C)c3c2c1 [Example I-2] | 4.11
* CN(Cc1ccc2c(c1)OC(F)(F)O2)C(=O)c1cc2c(cc1F)nc(N)c1cnn(C)c12 [Example I-1] | 5.69
* CCN(Cc1ccc2c(c1)OC(F)(F)O2)C(=O)c1ccc2nc(N)c3cnn(C)c3c2c1 [Example I-5] | 3.62
* Cn1ncc2c(N)nc3cc(F)c(C(=O)N(Cc4ccc5c(c4)OC(F)(F)O5)C4CC4)cc3c21 [Example I-16] | 6.37
